Assign Kon to each entry below.
Test system: D-VEGF
MEASUREMENT_PROTOCOL: SPR affinity measurements of GB1 peptidic compounds on immobilized D-VEGF
Format: binding
APPLIED_CONDITIONS: Table 1; target D-VEGF; E01 point mutants expressed in E. coli

Q: Looking for the measured Kon of E01-D27E: E01 point mutant D27E (protein) MKIEEHHHHHHHHHHGGSTYKLILNGKTLKGETTTEAVDVYDAFEVFFVYAASNFSDFDDWTYDDATKTFTVTEGGSDK , can you help?
A: 347000 M⁻¹ s⁻¹

Q: Item under review: E01-V31A: E01 point mutant V31A (protein) MKIEEHHHHHHHHHHGGSTYKLILNGKTLKGETTTEAVDVYDAFDVFFAYAASNFSDFDDWTYDDATKTFTVTEGGSDK . Reported Kon?
A: 250000 M⁻¹ s⁻¹

Q: Look at this molecule and give its reported Kon. E01-F40I: E01 point mutant F40I (protein) MKIEEHHHHHHHHHHGGSTYKLILNGKTLKGETTTEAVDVYDAFDVFFVYAASNFSDIDDWTYDDATKTFTVTEGGSDK
A: 398000 M⁻¹ s⁻¹

Q: Request the reported Kon associated with E01-D24G: E01 point mutant D24G (protein) MKIEEHHHHHHHHHHGGSTYKLILNGKTLKGETTTEAVDVYGAFDVFFVYAASNFSDFDDWTYDDATKTFTVTEGGSDK
A: 166000 M⁻¹ s⁻¹
